Tested on: adjuvant arthritis
Experiment: Adjuvant arthritis (method of Pearson), reduction in the increase in paw volume
Assay type: in vivo, male rats of a Wistar-Lewis strain
Settings: Rattus norvegicus, po; * 12.5 mg/kg p.o., rats
Source text: 1. […] The experimental animals used were male rats of a Wistar-Lewis strain having a body weight between 130 and 200 g. […] The animals in a control group received only the vehicle. Each preparation and control group comprised 8 animals. The criterion for action was the percentage reduction in the increase in paw volume compared to that of the untreated control group.
Measurement kind: inhibition in vivo at 12.5 mg/kg (%)
Give just the number in %; leave the unit off.

Please review the following examples before continuing.
{"columns": ["Compound", "Observed result"],
 "data": [
  ["CCN(C)C1=NN=C(c2cc(C(C)(C)C)c(O)c(C(C)(C)C)c2)CS1 [Example 8]", 61],
  ["CC1SC(N(C)C)=NN=C1c1cc(C(C)(C)C)c(O)c(C(C)(C)C)c1 (stereo not shown) [Example 22]", 84],
  ["CN(C)C1=NN=C(c2cc(C(C)(C)C)c(O)c(C(C)(C)C)c2)CS1 [Example 1]", 69]
]}

Now let's try a different one.
Request: If you can, please state the reported inhibition in vivo at 12.5 mg/kg value of CCN(CC)C1=NN=C(c2cc(C(C)(C)C)c(O)c(C(C)(C)C)c2)CS1 [Example 9] .
Response: 55
